src = the supplement of paper PMC6555819

# Tested on: LXRb:RXRa (NR concentration 270 nM, RXRa partner concentration 90 nM)
# Assay Method Text: PBM binding z-score (relative to random genomic background probes); higher = stronger binding; sequences stand for … in GC…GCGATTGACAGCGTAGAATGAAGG
Note to self: class = bucket of PBM binding z-score, per zone 1 = under -0.2, zone 2 = from -0.2 up to 2, zone 3 = 2 and over

> print(dat)
                         item.sequence  label.value
 1  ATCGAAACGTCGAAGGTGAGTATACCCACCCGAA       zone 1
 2  CGAACTAGGTCATCCAGGGCAGTGAATACATTGA       zone 3
 3  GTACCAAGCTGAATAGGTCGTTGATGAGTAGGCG       zone 1
 4  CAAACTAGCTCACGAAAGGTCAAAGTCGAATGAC       zone 3
 5  GCTAGTTGGTCAGTAAAAGGTCACACATCGGTCG       zone 3
 6  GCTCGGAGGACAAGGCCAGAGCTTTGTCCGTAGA       zone 1
 7  ATCTTTAGGTAACAAGTTCAGTGAAAGAGAGGAC       zone 2
 8  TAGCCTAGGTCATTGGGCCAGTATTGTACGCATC       zone 3
 9  TCATGTAGGTAAATGCTAGGTGAAAGTCCGATCT       zone 2
10  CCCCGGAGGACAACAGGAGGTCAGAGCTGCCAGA       zone 2
11  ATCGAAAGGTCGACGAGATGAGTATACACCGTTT       zone 3
12  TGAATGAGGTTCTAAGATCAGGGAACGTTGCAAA       zone 1

---

# System: PXR homodimer (NR concentration 270 nM)
# Assay Method Text: PBM binding z-score (relative to random genomic background probes); higher = stronger binding; sequences stand for … in GC…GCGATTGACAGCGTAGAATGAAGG
Label Yes when PBM binding z-score >= 0.3; otherwise No.

> print(dat)
                         item.sequence  label.value
 1  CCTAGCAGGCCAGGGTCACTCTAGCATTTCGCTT           No
 2  CGAACTAGGTCAGATCAGGACAGTGAAGGATGAT           No
 3  CAAACTAGGTCAAAGGTCATAGTCGAGCCAACCA          Yes
 4  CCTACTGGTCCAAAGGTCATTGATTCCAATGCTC          Yes
 5  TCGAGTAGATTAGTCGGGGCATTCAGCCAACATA           No
 6  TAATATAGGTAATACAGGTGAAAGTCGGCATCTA          Yes
 7  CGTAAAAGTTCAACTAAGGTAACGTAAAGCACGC          Yes
 8  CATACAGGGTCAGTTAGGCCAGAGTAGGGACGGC           No
 9  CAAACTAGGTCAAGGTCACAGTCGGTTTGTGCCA          Yes
10  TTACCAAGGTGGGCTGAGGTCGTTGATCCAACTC           No
11  GCTGCTAGGTCAGGGTGGTCAGCTAACGGGTACG           No
12  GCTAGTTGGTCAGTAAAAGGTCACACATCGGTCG          Yes

---

# Tested on: PXR homodimer (NR concentration 270 nM)
# Assay Method Text: PBM binding z-score (relative to random genomic background probes); higher = stronger binding; sequences stand for … in GC…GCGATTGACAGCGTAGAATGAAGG
Note to self: class = bucket of PBM binding z-score, per band A (below 0.03), band B (0.03 to below 0.6), band C (0.6 or more)

> print(dat)
                         item.sequence                        system.under.test  label.value
 1  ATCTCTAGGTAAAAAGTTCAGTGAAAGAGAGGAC  PXR homodimer (NR concentration 270 nM)       band C
 2  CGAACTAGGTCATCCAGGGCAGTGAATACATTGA  PXR homodimer (NR concentration 270 nM)       band C
 3  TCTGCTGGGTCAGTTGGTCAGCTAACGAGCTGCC  PXR homodimer (NR concentration 270 nM)       band A
 4  TCTGCTAGGTAAGTTGGTCAGCTAACGAGCTGCC  PXR homodimer (NR concentration 270 nM)       band A
 5  CCTACTGGGCCATCAGGTCATAGATATCAACGTT  PXR homodimer (NR concentration 270 nM)       band B
 6  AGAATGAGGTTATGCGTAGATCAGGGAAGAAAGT  PXR homodimer (NR concentration 270 nM)       band B
 7  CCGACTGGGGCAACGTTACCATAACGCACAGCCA  PXR homodimer (NR concentration 270 nM)       band A
 8  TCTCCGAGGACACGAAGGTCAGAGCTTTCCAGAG  PXR homodimer (NR concentration 270 nM)       band C
 9  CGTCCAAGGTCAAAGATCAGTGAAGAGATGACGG  PXR homodimer (NR concentration 270 nM)       band C
10  CCTACTGGGCCAAGGTCATTGATCAGTCAAAGCA  PXR homodimer (NR concentration 270 nM)       band B
11  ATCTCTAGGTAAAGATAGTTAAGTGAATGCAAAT  PXR homodimer (NR concentration 270 nM)       band B
12  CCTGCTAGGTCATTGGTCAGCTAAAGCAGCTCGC  PXR homodimer (NR concentration 270 nM)       band A
13  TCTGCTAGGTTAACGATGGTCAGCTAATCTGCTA  PXR homodimer (NR concentration 270 nM)       band A
14  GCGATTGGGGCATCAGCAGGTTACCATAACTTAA  PXR homodimer (NR concentration 270 nM)       band A
15  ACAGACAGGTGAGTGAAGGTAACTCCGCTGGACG  PXR homodimer (NR concentration 270 nM)       band A
16  CTCGAAAGGTCGGTTAAGGTGAGTATACGGATAA  PXR homodimer (NR concentration 270 nM)       band B
17  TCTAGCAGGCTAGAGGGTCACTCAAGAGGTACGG  PXR homodimer (NR concentration 270 nM)       band A
18  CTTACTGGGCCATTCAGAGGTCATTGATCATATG  PXR homodimer (NR concentration 270 nM)       band C
19  AGTCAAAGTTCAGGTCGAGGTAACGTAAAGCACG  PXR homodimer (NR concentration 270 nM)       band C
20  CCTAGTTGGTCGGGAGGTCACACACCGGATATGA  PXR homodimer (NR concentration 270 nM)       band C
21  CAAACTAGGTCACCGGATGGTCAAAGTCCGCATG  PXR homodimer (NR concentration 270 nM)       band B
22  CGTCCAAGGTCACTGCTAGGTCAGTGAAAGCATT  PXR homodimer (NR concentration 270 nM)       band C
23  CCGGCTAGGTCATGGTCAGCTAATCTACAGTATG  PXR homodimer (NR concentration 270 nM)       band A
24  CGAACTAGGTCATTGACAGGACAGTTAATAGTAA  PXR homodimer (NR concentration 270 nM)       band B
25  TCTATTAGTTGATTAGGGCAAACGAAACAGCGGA  PXR homodimer (NR concentration 270 nM)       band B

---

PBM binding z-score listing for selected sequences.
# System: VDR homodimer (NR concentration 270 nM)
# Assay Method Text: PBM binding z-score (relative to random genomic background probes); higher = stronger binding; sequences stand for … in GC…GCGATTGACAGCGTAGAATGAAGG
Property Label: PBM binding z-score

> print(dat)
                        item.sequence       property.label  recorded.value
1  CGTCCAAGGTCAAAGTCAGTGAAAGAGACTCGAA  PBM binding z-score            2.46
2  TTACCAAGGGGAAGGTCGTTGATCCCTCTGTAGA  PBM binding z-score           0.435
3  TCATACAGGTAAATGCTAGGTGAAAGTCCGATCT  PBM binding z-score           0.146
4  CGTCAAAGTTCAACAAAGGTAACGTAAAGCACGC  PBM binding z-score            3.16
5  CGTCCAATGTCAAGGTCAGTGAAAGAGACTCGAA  PBM binding z-score            1.57
6  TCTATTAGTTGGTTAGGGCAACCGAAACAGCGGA  PBM binding z-score           0.587

---

# Tested on: LXRa homodimer (NR concentration 270 nM)
# Assay Method Text: PBM binding z-score (relative to random genomic background probes); higher = stronger binding; sequences stand for … in GC…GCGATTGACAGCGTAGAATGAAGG
Label true (1) when PBM binding z-score >= 0.3; otherwise false (0).

> print(dat)
                        item.sequence                         system.under.test  label.value
1  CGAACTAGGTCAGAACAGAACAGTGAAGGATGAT  LXRa homodimer (NR concentration 270 nM)    false (0)
2  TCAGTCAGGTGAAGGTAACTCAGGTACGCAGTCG  LXRa homodimer (NR concentration 270 nM)    false (0)
3  CGTACTGGGCCATTCAGAGGTCATTGATCATATG  LXRa homodimer (NR concentration 270 nM)     true (1)
4  TCATATAGGTAAAAGGTGGAAGTCGGTGTGGTAA  LXRa homodimer (NR concentration 270 nM)    false (0)
5  GCAGACAGGTGAAACGCAGGAAACTCAGGGTGGC  LXRa homodimer (NR concentration 270 nM)    false (0)
6  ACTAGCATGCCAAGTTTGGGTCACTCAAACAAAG  LXRa homodimer (NR concentration 270 nM)    false (0)
